Tested on: HIV-1 (strain IIIB)
protocol_description: Antiviral activity assay in MT4 cells (propidium iodide based)
Assay type: cell-based
run_conditions: Human immunodeficiency virus 1, IIIB; wild type HIV-1 virus, MT4 cells; read-out: Wildtype virus - IC50
Quick reference: IC50 of the listed items.

In plain terms, CC(C)CN(C[C@@H](O)[C@H](Cc1ccc(OCCCCNC(=O)OC(C)(C)C)cc1)NC(=O)O[C@H]1CO[C@H]2OCC[C@H]21)S(=O)(=O)c1ccc2c(c1)OCO2 has a documented IC50 of 1 to 10 nM

The molecule identified as CC(C)CN(C[C@@H](O)[C@H](Cc1ccc(OCCNS(C)(=O)=O)cc1)NC(=O)O[C@H]1CO[C@H]2OCC[C@H]21)S(=O)(=O)c1ccc2c(c1)OCO2 registered its IC50 at 10 to 100 nM

The recorded IC50 for CNC(=O)NCCOc1ccc(C[C@H](NC(=O)O[C@H]2CO[C@H]3OCC[C@H]32)[C@H](O)CN(CC(C)C)S(=O)(=O)c2ccc3c(c2)OCO3)cc1 is 10 to 100 nM

====

Test system: HIV-1 (strain IIIB)
protocol_description: Antiviral activity assay in MT4 cells (propidium iodide based)
Format: cell-based
run_conditions: Human immunodeficiency virus 1, IIIB; wild type HIV-1 virus, MT4 cells; read-out: Wildtype virus - IC50
pIC50: −log10 of the molar value.
readout_kind: pIC50

Record excerpt, results attached:
Just so you know, measured pIC50 for CC(C)CN(C[C@@H](O)[C@H](Cc1ccc(OCCCNc2cc[nH]n2)cc1)NC(=O)OC1CO[C@H]2OCC[C@@H]12)S(=O)(=O)c1ccc2c(c1)OCO2 (stereo in doubt) came out at 8.00 to 9.00

CC(=O)NCCOc1ccc(C[C@H](NC(=O)O[C@H]2CO[C@H]3OCC[C@H]32)[C@H](O)CN(CC(C)C)S(=O)(=O)c2ccc3c(c2)OCO3)cc1 yielded pIC50 of 7.00 to 8.00

The measured pIC50 associated with CNC(=O)CCCOc1ccc(C[C@H](NC(=O)OC2CO[C@H]3OCC[C@@H]23)[C@H](O)CN(CC(C)C)S(=O)(=O)c2ccc3c(c2)OCO3)cc1 (stereo in doubt) reads 7.00 to 8.00

Entry under test: CC(C)CN(C[C@@H](O)[C@H](Cc1ccc(OCCCc2ccccc2)cc1)NC(=O)O[C@H]1CO[C@H]2OCC[C@H]21)S(=O)(=O)c1ccc2c(c1)OCO2 . Its pIC50 was > 9.00

Record CC(C)CN(C[C@@H](O)[C@H](Cc1ccc(OCCN(C)C)cc1)NC(=O)O[C@H]1CO[C@H]2OCC[C@H]21)S(=O)(=O)c1ccc2c(c1)OCO2 , field pIC50: 7.00 to 8.00

***
// sample CCC(CC)ON(C[C@@H](O)[C@H](Cc1ccc(OCc2ccccc2)cc1)NC(=O)O[C@H]1CO[C@H]2OCC[C@H]21)S(=O)(=O)c1ccc2c(c1)OCO2 , its pIC50 was 8.00 to 9.00

pIC50 reported for this compound CC(C)CN(C[C@@H](O)[C@H](Cc1ccc(OCCCN2CCSC2)cc1)NC(=O)O[C@H]1CO[C@H]2OCC[C@H]21)S(=O)(=O)c1ccc2c(c1)OCO2 : 8.00 to 9.00

Measured pIC50 of CC(C)CN(C[C@@H](O)[C@H](Cc1ccc(OCCN)cc1)NC(=O)O[C@H]1CO[C@H]2OCC[C@H]21)S(=O)(=O)c1ccc2c(c1)OCO2 : 7.00 to 8.00

Recorded result, CC(C)CN(C[C@@H](O)[C@H](Cc1ccc(OCCCNc2ccc(C(F)(F)F)cn2)cc1)NC(=O)O[C@H]1CO[C@H]2OCC[C@H]21)S(=O)(=O)c1ccc2c(c1)OCO2 , pIC50: 8.00 to 9.00

The reported value for CNC(=O)Oc1ccc(C[C@H](NC(=O)O[C@H]2CO[C@H]3OCC[C@H]32)[C@H](O)CN(CC(C)C)S(=O)(=O)c2ccc3c(c2)OCO3)cc1 in terms of pIC50 is 8.00 to 9.00

Given item CC(C)CN(C[C@@H](O)[C@H](Cc1ccc(OCc2csc3ccccc23)cc1)NC(=O)O[C@H]1CO[C@H]2OCC[C@H]21)S(=O)(=O)c1ccc2c(c1)OCO2 , the value recorded as its pIC50 is 8.00 to 9.00

// CC(C)CN(C[C@@H](O)[C@H](Cc1ccc(OC(=O)NCCn2ccnc2)cc1)NC(=O)O[C@H]1CO[C@H]2OCC[C@H]21)S(=O)(=O)c1ccc2c(c1)OCO2 : pIC50 value = 7.00 to 8.00

GET /value?item= CC(C)CN(C[C@@H](O)[C@H](Cc1ccc(Oc2ccc([N+](=O)[O-])cc2[N+](=O)[O-])cc1)NC(=O)O[C@H]1CO[C@H]2OCC[C@H]21)S(=O)(=O)c1ccc2c(c1)OCO2 &field=pIC50 returns 8.00 to 9.00

Field pIC50 (entry CNC(=O)OCCOc1ccc(C[C@H](NC(=O)O[C@H]2CO[C@H]3OCC[C@H]32)[C@H](O)CN(CC(C)C)S(=O)(=O)c2ccc3c(c2)OCO3)cc1 ) reads 8.00 to 9.00

Form field pIC50, entry CC(C)CN(C[C@@H](O)[C@H](Cc1ccc(OCc2cccc([N+](=O)[O-])c2)cc1)NC(=O)O[C@H]1CO[C@H]2OCC[C@H]21)S(=O)(=O)c1ccc2c(c1)OCO2 : 8.00 to 9.00

get_value(item= CC(C)CN(C[C@@H](O)[C@H](Cc1ccc(OCCCn2ccnc2)cc1)NC(=O)O[C@H]1CO[C@H]2OCC[C@H]21)S(=O)(=O)c1ccc2c(c1)OCO2 , readout=pIC50) returns 7.00 to 8.00

Recorded pIC50 (compound CC(C)CN(C[C@@H](O)[C@H](Cc1ccc(OCCNC(=O)OC(C)(C)C)cc1)NC(=O)O[C@H]1CO[C@H]2OCC[C@H]21)S(=O)(=O)c1ccc2c(c1)OCO2 ): 8.00 to 9.00

So, CC(C)CN(C[C@@H](O)[C@H](Cc1ccc(OCCCN2CCN(C)CC2)cc1)NC(=O)O[C@H]1CO[C@H]2OCC[C@H]21)S(=O)(=O)c1ccc2c(c1)OCO2 ? Its pIC50 was 7.00 to 8.00

get_value(item= Cc1nc(COc2ccc(C[C@H](NC(=O)O[C@H]3CO[C@H]4OCC[C@H]43)[C@H](O)CN(CC(C)C)S(=O)(=O)c3ccc(O)c(C)c3)cc2)cs1 , readout=pIC50) returns 8.00 to 9.00

For record CC(C)CN(C[C@@H](O)[C@H](Cc1ccc(OCCCCN/C(=N/C#N)Oc2ccccc2)cc1)NC(=O)O[C@H]1CO[C@H]2OCC[C@H]21)S(=O)(=O)c1ccc2c(c1)OCO2 the listed pIC50 is 8.00 to 9.00

====

Test system: HIV-1 (strain IIIB)
protocol_description: Antiviral activity assay in MT4 cells (propidium iodide based)
Assay type: cell-based
run_conditions: Human immunodeficiency virus 1, IIIB; wild type HIV-1 virus, MT4 cells; read-out: Wildtype virus - IC50
readout_kind: IC50

The compound listed as CC(C)CN(C[C@@H](O)[C@H](Cc1ccc(OCCCCN)cc1)NC(=O)O[C@H]1CO[C@H]2OCC[C@H]21)S(=O)(=O)c1cccc(N)c1 shows IC50 equal to 10 to 100 nM

Next:
Query CC(C)CN(C[C@@H](O)[C@H](Cc1ccc(OCc2ccccn2)cc1)NC(=O)O[C@H]1CO[C@H]2OCCC21)S(=O)(=O)c1cccc(N)c1 (stereo partly drawn) yields IC50 of 1 to 10 nM

What the record says about CC(C)CN(C[C@@H](O)[C@H](Cc1ccc(OCc2ccccn2)cc1)NC(=O)O[C@@H]1CO[C@H]2OCC[C@H]21)S(=O)(=O)c1ccc(N)cc1 : IC50 is 1 to 10 nM

Given item CCOC(=O)COc1ccc(C[C@H](NC(=O)O[C@H]2CO[C@H]3OCC[C@H]32)[C@H](O)CN(CC(C)C)S(=O)(=O)c2ccc3c(c2)OCO3)cc1 , the value recorded as its IC50 is 1 to 10 nM

Consider CC(C)CN(C[C@@H](O)[C@H](Cc1ccc(OCc2ccncc2)cc1)NC(=O)O[C@H]1CO[C@H]2OCC[C@H]21)S(=O)(=O)c1ccc2c(c1)OCO2 . Its measured IC50 is 10 to 100 nM

IC50 reading for COC(=O)CCCOc1ccc(C[C@H](NC(=O)OC2CO[C@H]3OCCC23)[C@H](O)CN(CC(C)C)S(=O)(=O)c2ccc3c(c2)OCO3)cc1 (stereo partly drawn) : 10 to 100 nM

Sure, the documented IC50 for CC(C)CN(C[C@@H](O)[C@H](Cc1ccc(OS(=O)(=O)c2ccc3c(c2)OCO3)cc1)NC(=O)O[C@H]1CO[C@H]2OCC[C@H]21)S(=O)(=O)c1ccc2c(c1)OCO2 is 1 to 10 nM

The compound CC(C)CN(C[C@@H](O)[C@H](Cc1ccc(OC(N)=O)cc1)NC(=O)O[C@H]1CO[C@H]2OCC[C@H]21)S(=O)(=O)c1ccc2c(c1)OCO2 showed IC50 equal to 10 to 100 nM

# compound Cc1noc(C)c1-c1nc(COc2ccc(C[C@H](NC(=O)O[C@H]3CO[C@H]4OCC[C@H]43)[C@H](O)CN(CC(C)C)S(=O)(=O)c3ccc4c(c3)OCO4)cc2)no1 ; its IC50 = 1 to 10 nM

Reported IC50 of CC(C)CN(C[C@@H](O)[C@H](Cc1ccc(OCc2ccc(C#N)cc2)cc1)NC(=O)O[C@H]1CO[C@H]2OCC[C@H]21)S(=O)(=O)c1ccc2c(c1)OCO2 : 1 to 10 nM

Sure, the documented IC50 for COC(=O)NCCOc1ccc(C[C@H](NC(=O)O[C@H]2CO[C@H]3OCC[C@H]32)[C@H](O)CN(CC(C)C)S(=O)(=O)c2ccc3c(c2)OCO3)cc1 is < 1 nM

Lab book: IC50 of CC(C)CN(C[C@@H](O)[C@H](Cc1ccc(OCCN2CCSC2)cc1)NC(=O)O[C@H]1CO[C@H]2OCC[C@H]21)S(=O)(=O)c1ccc2c(c1)OCO2 noted as 1 to 10 nM

Given item Cc1cc(S(=O)(=O)N(CC(C)C)C[C@@H](O)[C@H](Cc2ccc(OCc3ccccn3)cc2)NC(=O)O[C@H]2CO[C@H]3OCC[C@H]32)ccc1O , the value recorded as its IC50 is 1 to 10 nM

Kindly note the recorded IC50 for CC(C)CN(C[C@@H](O)[C@H](Cc1ccc(OCc2ccc(F)c(F)c2)cc1)NC(=O)O[C@H]1CO[C@H]2OCC[C@H]21)S(=O)(=O)c1ccc2c(c1)OCO2 , which is 1 to 10 nM

Item: CC(C)CN(C[C@@H](O)[C@H](Cc1ccc(OCc2ccccn2)cc1)NC(=O)O[C@H]1CO[C@H]2OCC[C@H]21)S(=O)(=O)c1ccc2c(c1)OCO2 | IC50: 1 to 10 nM

// IC50 lookup, compound = CC(C)CN(C[C@@H](O)[C@H](Cc1ccc(OCCCNc2ncccn2)cc1)NC(=O)OC1CO[C@H]2OCC[C@@H]12)S(=O)(=O)c1ccc2c(c1)OCO2 (stereo in doubt) , result: 1 to 10 nM

Form: compound = CC(C)CN(C[C@@H](O)[C@H](Cc1ccc(OCCCNC(=O)c2ccoc2)cc1)NC(=O)O[C@H]1CO[C@H]2OCC[C@H]21)S(=O)(=O)c1ccc2c(c1)OCO2 ; IC50 = 1 to 10 nM

The recorded IC50 for entry CC(C)CN(C[C@@H](O)[C@H](Cc1ccc(OCCCOC(N)=O)cc1)NC(=O)O[C@H]1CO[C@H]2OCC[C@H]21)S(=O)(=O)c1ccc2c(c1)OCO2 equals 1 to 10 nM

Lab note: measured IC50 of CC(C)CN(C[C@@H](O)[C@H](Cc1ccc(OCc2cc(F)cc(F)c2)cc1)NC(=O)O[C@H]1CO[C@H]2OCC[C@H]21)S(=O)(=O)c1ccc2c(c1)OCO2 was 1 to 10 nM

Note to self: IC50 recorded for CC(C)CN(C[C@@H](O)[C@H](Cc1ccc(OCCCC(F)(F)F)cc1)NC(=O)O[C@H]1CO[C@H]2OCC[C@H]21)S(=O)(=O)c1ccc2c(c1)OCCO2 was 1 to 10 nM

Noted for CC(C)CN(C[C@@H](O)[C@H](Cc1ccc(OCCc2ccccc2)cc1)NC(=O)O[C@H]1CO[C@H]2OCC[C@H]21)S(=O)(=O)c1ccc2c(c1)OCO2 : its IC50 reads < 1 nM
